Origin of measurements: the RNAGym collection of RNA variant scans (doi:10.1073/pnas.2313332121)

B1: TPR t1 (parent)
chain: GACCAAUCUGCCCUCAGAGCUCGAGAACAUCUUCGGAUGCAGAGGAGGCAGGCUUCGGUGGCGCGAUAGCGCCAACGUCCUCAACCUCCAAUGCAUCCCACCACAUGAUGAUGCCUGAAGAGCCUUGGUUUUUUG

Variants of: B1
Assay: polymerase ribozyme fitness, log enrichment relative to wild type (log ratio); higher = more active; in vitro selection for triplet polymerase activity
RESULT TYPE: polymerase ribozyme fitness (log ratio)

C11A C15U G48U A90G U112A = -2.88
C8U A29U C70U = -2.36
G71A G120A = -0.000691
C56A C115A = -0.059
U7A A46U A50U G60A G69U U96C = -1.72
C13A A27C U129A = -5.35
G42C C70A = -4.99
G23C G69C C94G U96A G113U G120C = -7.12
A50U G58A U78C A103G U109G = -5.98
C20U G60U = -1.52
C28G G69U A91G U116G = -5.08
G45A G60C = -0.0735
G19U G69C = -4.45
G39A G110U = -2.32
A50G U55C C88U G107C U112G C123G = -5.21
A100U C115U = -2.94
A5U G48U C56U G93A = -0.937
A41U G52A U59C A108G C114G U125G = -5.99
U54A C124A G128U = -0.136
U55A C62U C85A A100U C102U = -5.11
C22G A27C U59A A95G = -3.9
C73U C79U C104U = -0.0392
